Biological target: Human PDE4D3 (Homo sapiens)
Sequence (Q08499 1-673 isoform Q08499-2): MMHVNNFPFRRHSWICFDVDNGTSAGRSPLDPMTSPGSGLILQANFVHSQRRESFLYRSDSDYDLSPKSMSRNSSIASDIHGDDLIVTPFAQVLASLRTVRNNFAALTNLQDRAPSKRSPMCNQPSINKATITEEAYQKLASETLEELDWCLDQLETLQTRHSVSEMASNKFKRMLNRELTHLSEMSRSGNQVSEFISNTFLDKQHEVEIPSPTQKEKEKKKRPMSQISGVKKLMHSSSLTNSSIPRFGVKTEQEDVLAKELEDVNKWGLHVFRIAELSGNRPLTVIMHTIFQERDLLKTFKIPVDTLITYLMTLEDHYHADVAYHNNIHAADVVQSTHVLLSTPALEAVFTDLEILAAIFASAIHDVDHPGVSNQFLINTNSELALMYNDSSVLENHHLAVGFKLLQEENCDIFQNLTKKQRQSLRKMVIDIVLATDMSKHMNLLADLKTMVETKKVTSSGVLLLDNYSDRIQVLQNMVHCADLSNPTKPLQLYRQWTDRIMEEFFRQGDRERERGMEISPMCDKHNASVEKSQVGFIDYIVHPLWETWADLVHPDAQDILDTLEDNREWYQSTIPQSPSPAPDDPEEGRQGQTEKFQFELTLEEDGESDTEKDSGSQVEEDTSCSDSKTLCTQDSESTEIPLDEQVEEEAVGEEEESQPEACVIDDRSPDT
Assay: Inhibition of cAMP hydrolysis by recombinant PDE4D3
Settings: read-out: Human PDE4D3 Ki, recombinant enzyme

compound	unit string	Ki
COc1ccc(C2=NNC(=O)C3CC=CCC23)cc1OC (stereo not shown) [Compound 19, reference compound]	nM	6.3
